These entries and their values trace back to the supplement of paper PMC7156485.

System: HCC1569
Test: H1.0 immunofluorescence intensity relative to DMSO (% of DMSO); higher = stronger H1.0 induction, active = 140 or more
Details: concentration: 10 µM; 24 h
A collection of compounds and their measured H1.0 immunofluorescence intensity
outcome measure: H1.0 immunofluorescence intensity

>>> observed_result("Cl.O=C1CC2OCC=C3CN4CCC56c7ccccc7N1C5C2C3CC46 (centres undefined)")
94.2
>>> observed_result("CN1CC(C(=O)NC2(C)OC3(O)C4CCCN4C(=O)C(Cc4ccccc4)N3C2=O)CC2c3cccc4[nH]cc(c34)CC21.CS(=O)(=O)O (centres undefined) [Dihydroergotamine methanesulfonate]")
95.5
>>> observed_result("COc1ccc(C(=O)OC2CCC3(C)C4CCC5C6(O)CC(O)C7(O)C(CN8CC(C)CCC8C7(C)O)C6(O)CC53OC24O)cc1OC (centres undefined)")
81.9
>>> observed_result("CN(C(=O)Cc1ccc(Cl)c(Cl)c1)C(CN1CCCC1)c1cccc(OCC(=O)O)c1.Cl (centres undefined) [ICI 204,448 hydrochloride]")
92.8

----------
Collected H1.0 immunofluorescence intensity values appear next to each entry.
System: TDF
Assay: H1.0 immunofluorescence intensity relative to DMSO (% of DMSO); higher = stronger H1.0 induction, active = 120 or more
Details: concentration: 10 µM; 24 h
outcome measure: H1.0 immunofluorescence intensity

>>> observed_result("COc1ccc2c(c[n+](C)c3c4cc5c(cc4ccc23)OCO5)c1OC.[Cl-] [Chelerythrine]")
139
>>> observed_result("CCc1c(C(=O)OC)ncc2[nH]c3cc(OC)c(OC)cc3c12 [Methyl 6,7-dimethoxy-4-ethyl-beta-carboline-3-carboxylate]")
88.1
>>> observed_result("CCCCCCCCCCCCCCC(Br)C(=O)O (centres undefined) [2-bromohexadecanoic acid]")
91.6
>>> observed_result("Cl.O=C(O)Cc1cnc[nH]1 [Imidazole-4-acetic acid hydrochloride]")
93

----------
Test system: HCC1569
Assay: H1.0 immunofluorescence intensity relative to DMSO (% of DMSO); higher = stronger H1.0 induction, active = 140 or more
Settings: concentration: 10 µM; 24 h
Outcome codes: true (1) (active), false (0) (inactive)

>>> assigned_category("Oc1ccc2c3c1OC1C(O)CCC4(O)C(C2)N(CC2CCC2)CCC314 (stereo unspecified) [Nalbuphine]")
"false (0)"
>>> assigned_category("Cl.c1ccc2sc(C3(N4CCCCC4)CCCCC3)cc2c1 [BTCP hydrochloride]")
"false (0)"
>>> assigned_category("CS(=O)(=O)O.S=C=Nc1cccc(C2(N3CCCCC3)CCCCC2)c1 [Metaphit methanesulfonate]")
"false (0)"
>>> assigned_category("NC(Cc1ccc(N(CCCl)CCCl)cc1)C(=O)O (stereo unspecified) [Melphalan]")
"false (0)"
>>> assigned_category("C[N+]1(C)C2CC(OC(=O)C(CO)c3ccccc3)CC1C1OC12.[Br-] (single isomer, unassigned; (-)) [(-)-Scopolamine methyl bromide]")
"false (0)"
>>> assigned_category("CC1OC(OC2CC(O)C3(CO)C4C(O)CC5(C)C(C6=CC(=O)OC6)CCC5(O)C4CCC3(O)C2)C(O)C(O)C1O (single isomer, unassigned; (-)) [(-)-Ouabain]")
"false (0)"
>>> assigned_category("C1CCC(NC2CCCCC2)CC1")
"false (0)"
>>> assigned_category("CCCN1CC(CSC)CC2c3cccc4[nH]cc(c34)CC21.CS(=O)(=O)O (stereo unspecified) [Pergolide mesylate]")
"false (0)"
>>> assigned_category("O=C(O)C=CC(=O)O.O=[N+]([O-])c1ccc2nc(N3CCNCC3)ccc2c1 [Quipazine, 6-nitro-, maleate]")
"false (0)"
>>> assigned_category("COC12CC(COC(=O)c3cncc(Br)c3)CN(C)C1Cc1cn(C)c3cccc2c13 (stereo unspecified) [Nicergoline]")
"false (0)"
>>> assigned_category("CC=C(C)C(=O)OC1CCC2(C)C3CCC4C5(O)CC(O)C6(O)C(CN7CC(C)CCC7C6(C)O)C5(O)CC42OC13O (stereo unspecified) [Cevadine]")
"false (0)"
>>> assigned_category("COc1cc2c(cc1O)CC1c3c(cc(O)c(OC)c3-2)CCN1C (stereo unspecified) [Boldine]")
"false (0)"
>>> assigned_category("CN1CCC2(CCN3CCc4c(oc5ccccc45)C3C2)N(C)C1=O.Cl (stereo unspecified)")
"false (0)"
>>> assigned_category("Br.CN1C2CC(OC(=O)C(CO)c3ccccc3)CC1C1OC12 (single isomer, unassigned; (-)) [(-)-Scopolamine hydrobromide]")
"false (0)"
>>> assigned_category("Cc1c(C(C)C2NCC(C)CC2O)ccc2c1CC1C2CC=C2CC(O)CCC21C (stereo unspecified) [Veratramine]")
"false (0)"
>>> assigned_category("CC(C)=CCCC1=CC(=O)c2c(O)ccc(O)c2C1=O [Deoxyshikonin]")
"true (1)"
>>> assigned_category("O=C(O)C1CCN1 [L-azetidine-2-carboxylic acid]")
"false (0)"
>>> assigned_category("COC1C(O)C(C)OC(OC2CCC3(C=O)C(CCC4C3CCC3(C)C(C5=CC(=O)OC5)CCC43O)C2)C1O (stereo unspecified) [Peruvoside]")
"false (0)"
>>> assigned_category("CC1C=CC=CCCC=CC=CC=CC=CC(OC2OC(C)C(O)C(N)C2O)CC2OC(O)(CC(O)C(O)CCC(O)CC(O)CC(O)CC(=O)OC(C)C(C)C1O)CC(O)C2C(=O)O (stereo unspecified) [Nystatin]")
"false (0)"
>>> assigned_category("Cl.O=C1CCC2(O)C3Cc4ccc(O)c5c4C2(CCN3CC2CC2)C1O5 (stereo unspecified) [Naltrexone.HCl]")
"false (0)"
>>> assigned_category("Fc1cc(F)c2c(c1)C1C=CCC1C(c1cccnc1)N2 (stereo unspecified)")
"true (1)"
>>> assigned_category("CC12CCC3C(CC=C4CC(O)CCC43C)C1CCC2=O (stereo unspecified) [Dehydroepiandrosterone]")
"false (0)"
>>> assigned_category("CC12CCC(O)CC1CCC1C2CCC2(C)C(C(=O)CO)CCC12 (stereo not drawn) [3-alpha,21-Dihydroxy-5-alpha-pregnan-20-one]")
"false (0)"
>>> assigned_category("CCCN1CCCC(c2cccc(O)c2)C1.Cl (stereo not drawn) [R(+)-3PPP hydrochloride]")
"false (0)"
>>> assigned_category("CCC(C)C(=O)OC1C(O)C2C(CN3CC(C)CCC3C2(C)O)C2CC34OC5(O)C(OC(=O)C(C)(O)C(C)O)CCC3(C)C5C(OC(C)=O)C(OC(C)=O)C4C21O (stereo unspecified) [Protoveratrine B]")
"false (0)"
>>> assigned_category("Cc1ccc2c(c1)C1(CCN(CCc3nc(-c4ccccc4)oc3C)CC1)OC(=O)N2")
"false (0)"
>>> assigned_category("NCC(CC(=O)O)c1ccc(Cl)cc1 (racemic)")
"false (0)"
>>> assigned_category("CCS(=O)(=O)Nc1cccc(C(=C2CCCCC2)c2cnc[nH]2)c1")
"false (0)"
>>> assigned_category("O=c1[nH]c2ccccc2n1C1CCN(CCCC(c2ccc(F)cc2)c2ccc(F)cc2)CC1 [Pimozide]")
"true (1)"
>>> assigned_category("Nc1ccncc1 [4-Aminopyridine]")
"false (0)"
>>> assigned_category("CS(=O)(=O)O.Oc1ccc2c3c1OC1c4oc5ccccc5c4CC4(O)C(C2)N(CC2CC2)CCC314 (stereo unspecified) [Naltriben methanesulfonate]")
"false (0)"

----------
Some molecules, each annotated with its measured cell number.
Tested on: HCC1569
Experiment: cell number relative to DMSO (% of DMSO); higher = more cells (less growth inhibition / toxicity)
Conditions: concentration: 10 µM; 24 h
outcome measure: cell number

>>> observed_result("CC12NC(Cc3ccccc31)c1ccccc12.O=C(O)C=CC(=O)O (single isomer, unassigned; (+)) [(+)-MK-801 hydrogen maleate]")
103
>>> observed_result("NC(=O)CI [Iodoacetamide]")
47.9
>>> observed_result("C=CCN1CCC23c4c5ccc(O)c4OC2C(=NN=C2CCC4(O)C6Cc7ccc(O)c8c7C4(CCN6CC=C)C2O8)CCC3(O)C1C5 (stereo not given)")
99.6
>>> observed_result("CCn1cc(C(=O)O)c(=O)c2cc3c(cc21)OCO3")
100
>>> observed_result("Cc1cccc(C)c1NC1=NCCCS1.Cl [Xylazine hydrochloride]")
100
>>> observed_result("CC12Cc3cn[nH]c3CC1CCC1C2CCC2(C)C1CCC2(C)O (stereo not given)")
94.4
>>> observed_result("CC1=C2C(=O)C3C(CC=C4CC(O)CCC43C)C2CCC12OC1CC(C)CNC1C2C (stereo not given)")
97.9
>>> observed_result("COC(=O)N1CCN(C(=O)Cc2ccc(Cl)c(Cl)c2)C(CN2CCCC2)C1.O=C(O)C=CC(=O)O (stereo not given)")
100
>>> observed_result("O=C(O)c1nn(Cc2ccc(Cl)cc2Cl)c2ccccc12")
107
>>> observed_result("COc1ccc(C(=O)c2c(C)n(CCN3CCOCC3)c3cc(I)ccc23)cc1")
85.1
>>> observed_result("CCCCCC=CCC=CCC=CCC=CCCCC(=O)NCC(=O)O")
101
>>> observed_result("c1ccc2c(c1)[nH]c1cnccc12")
100
>>> observed_result("COc1cccc(C2(O)CCCCC2CN(C)C)c1 (stereo not given)")
100
>>> observed_result("CC1C2Cc3ccc(O)cc3C1(C)CCN2CC1CC1 (single isomer, unassigned; (+)) [(+)-Cyclazocine]")
102
>>> observed_result("Br.CN1C2CC(OC(=O)C(CO)c3ccccc3)CC1C(O)C2 (stereo not given)")
104
>>> observed_result("CC(CCc1ccccc1)NC(C)C(O)c1ccc(O)cc1.Cl (stereo not given) [Buphenine.HCl]")
101
>>> observed_result("C=CCN1CCC23c4c5ccc(O)c4OC2C(=O)CCC3(O)C1C5.Cl (stereo not given) [Naloxone hydrochloride]")
104
>>> observed_result("COC1=CC(=O)OC(C=Cc2ccccc2)C1 (racemic)")
104
>>> observed_result("CC(O)(CS(=O)(=O)c1ccc(F)cc1)C(=O)Nc1ccc(C#N)c(C(F)(F)F)c1 (stereo not given) [Bicalutamide]")
99.1
>>> observed_result("NCCCNCCSP(=O)(O)O")
102
>>> observed_result("Cl.NCC(O)c1cc(O)c(O)cc1F (stereo not given) [6-Fluoronorepinephrine hydrochloride]")
99.2
>>> observed_result("COc1ccc(Cc2nccc3cc(OC)c(OC)cc23)cc1OC.Cl [Papaverine hydrochloride]")
87.1
>>> observed_result("Cl.NCCc1c[nH]c2ccccc12 [Tryptamine hydrochloride]")
99.1
>>> observed_result("COC(=O)C(N)CCCN=C(N)N[N+](=O)[O-].Cl [NG-Nitro-L-arginine methyl ester hydrochloride]")
103
>>> observed_result("CNC1CC(c2ccc(Cl)c(Cl)c2)c2ccccc21.Cl (stereo not given) [Indatraline hydrochloride]")
84.1
>>> observed_result("COc1ccc(C(=O)OC2CCC3(C)C4CCC5C6(O)CC(O)C7(O)C(CN8CC(C)CCC8C7(C)O)C6(O)CC53OC24O)cc1OC (stereo not given)")
107
>>> observed_result("C=C1C(C)C2C(Cc3ccccc3)NC(=O)C23C(OC(C)=O)C=CC(C)(O)C(=O)C(C)CC=CC3C1O (stereo not given)")
69.1
>>> observed_result("CC(C)(C)NCC(O)c1ccccc1Cl (stereo not given)")
111
>>> observed_result("CN1C2CCC1CC(OC(=O)C(CO)c1ccccc1)C2 (stereo not given)")
104
>>> observed_result("CC1=C2CC3C(CC=C4CC(O)CCC43C)C2CCC12OC1CC(C)CNC1C2C (stereo not given)")
104
>>> observed_result("COc1ccc2c(c1)[nH]c1c(C)nccc12")
87.2
>>> observed_result("COc1cc2c(cc1OC)[C@H]1CC(=O)[C@H](CC(C)C)CN1CC2")
106
>>> observed_result("Cl.NCC(O)c1ccc(O)cc1 (racemic)")
99.3
>>> observed_result("C=C1C2CC3(C1O)C1CC4C5(C)CCC(O)C4(C1N(CC)C5)C3CC2=O (stereo not given)")
101
>>> observed_result("CN1C(=O)C23CC4=CC=CC(O)C4N2C(=O)C1(CO)SS3 (stereo not given)")
0.969
